- targetSystem: purified IGFBP-5 protease from human osteoarthritic joint fluid (complement 1s) (Homo sapiens)
- Sequence (P09871 16-688): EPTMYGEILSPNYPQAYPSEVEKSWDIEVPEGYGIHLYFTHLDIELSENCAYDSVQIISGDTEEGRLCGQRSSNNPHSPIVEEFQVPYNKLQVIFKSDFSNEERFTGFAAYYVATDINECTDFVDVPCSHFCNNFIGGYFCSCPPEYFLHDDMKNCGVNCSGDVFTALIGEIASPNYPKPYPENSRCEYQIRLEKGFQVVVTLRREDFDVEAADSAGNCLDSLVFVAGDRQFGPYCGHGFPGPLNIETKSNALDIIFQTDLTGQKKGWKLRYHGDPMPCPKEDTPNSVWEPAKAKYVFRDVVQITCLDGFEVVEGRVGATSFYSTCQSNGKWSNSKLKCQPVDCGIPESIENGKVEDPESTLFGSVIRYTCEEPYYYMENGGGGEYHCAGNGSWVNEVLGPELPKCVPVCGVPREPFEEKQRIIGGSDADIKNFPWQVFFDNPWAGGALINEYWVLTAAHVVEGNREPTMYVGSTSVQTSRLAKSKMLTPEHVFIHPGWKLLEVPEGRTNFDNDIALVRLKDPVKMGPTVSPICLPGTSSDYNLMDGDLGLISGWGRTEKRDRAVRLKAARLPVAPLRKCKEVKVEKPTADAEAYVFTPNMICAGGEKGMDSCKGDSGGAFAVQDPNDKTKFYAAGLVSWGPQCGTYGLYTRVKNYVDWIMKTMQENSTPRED
pIC50: −log10 of the molar value.
readoutKind: pIC50

[[record]]
molsmiles = "N=C(N)c1ccc2cc(OC(=O)c3ccc(N=C(N)N)cc3)ccc2c1"
observedresult = 6.00


----------
- targetSystem: purified C1s (Calbiochem) (Homo sapiens, UniProt P09871)
- Sequence (P09871 16-688): as above
readoutKind: IC50

[[record]]
molsmiles = "N=C(N)c1ccc2cc(OC(=O)c3ccc(N=C(N)N)cc3)ccc2c1"
readoutkind = "IC50"
observedresult = "70 nM"

